tested on: K-562 leukemia; experiment: NCI-60 one-dose screen, 48 h; conditions: 10 µM unless noted
The panel holds about 83,000 compounds, 20% with a hit somewhere; the sample as a whole holds those more often. Active and inactive are the calls of the source. Rule for the calls: active = growth percent below 10; inactive = the rest.
Classes used: 1 (active), 0 (inactive)

Compound	Group
COc1ccc(CCN(CC(=O)N(CC(N)=O)C2CCC[C@@H]2OCc2ccccc2)C(=O)CN(C(=O)CN(CCc2ccc(Cl)cc2)C(=O)CN(C(=O)CN(C)Cc2ccccc2F)[C@H](C)C2CCCCC2)[C@H](C)C2CCCCC2)cc1OC (stereo partly specified)	0
CCN(CC)CCCN1C(=O)c2c(c(C)c3c(oc4ccc(OC)cc43)c2C)C1=O	1
Clc1ccccc1-c1cnn2cc(-c3ccccc3)cnc12	0
N#Cc1c(-c2ccccc2)nc(SCc2nnc(-c3ccc(Cl)cc3)o2)[nH]c1=O	0
N#C/C(=C\c1ccc(-c2cccc(C(F)(F)F)c2)o1)c1ccccc1	0
CN1CCN(Cc2ccc(NC(=O)c3cncc(C#Cc4cnc5ccc(Cl)nn45)c3)cc2C(F)(F)F)CC1	1

This collection of values is drawn from PubChem BioAssay (NCI).
